tested on: native geph; assay: µSPOT peptide microarray binding assay with native geph from mouse brain lysate; settings: µSPOT full positional scan of GlyRβ 15-mer DLRSNDFSIVGSLPR; native geph; intensity normalised to wild-type sequence (= 1)
MEASURE: Native geph Binding Intensity [norm.] (norm.)
Reply with just the number (in norm.).

Consider the reported Native geph Binding Intensity [norm.] for these sequences:
MACROMOLECULE_SEQUENCE: DLRSNDFSIVGNLPR [GlyRβ_Full_Positional_Scan_239]
ENDPOINT_UNIT: norm.
Native geph Binding Intensity [norm.]: 1.16
//
MACROMOLECULE_SEQUENCE: DLRSNDFSIVGSLCR [GlyRβ_Full_Positional_Scan_277]
ENDPOINT_UNIT: norm.
Native geph Binding Intensity [norm.]: 0.36
//
MACROMOLECULE_SEQUENCE: DLRSNDFSIVGSLQR [GlyRβ_Full_Positional_Scan_280]
ENDPOINT_UNIT: norm.
Native geph Binding Intensity [norm.]: 0.41
//
MACROMOLECULE_SEQUENCE: DLRSNDFSIVGSLPK [GlyRβ_Full_Positional_Scan_294]
ENDPOINT_UNIT: norm.
Native geph Binding Intensity [norm.]: 0.71
//
MACROMOLECULE_SEQUENCE: DLRSNDFSIVGSTPR [GlyRβ_Full_Positional_Scan_256]
ENDPOINT_UNIT: norm.
Native geph Binding Intensity [norm.]: 0.89

**Query** Tell me the measured Native geph Binding Intensity [norm.] of DLRSNDFSIVGSEPR [GlyRβ_Full_Positional_Scan_251] , please.
**Result** 0.67

**Query** Tell me the measured Native geph Binding Intensity [norm.] of DLRSNDFSIVGSNPR [GlyRβ_Full_Positional_Scan_259] , please.
**Result** 0.97

**Query** Tell me the measured Native geph Binding Intensity [norm.] of DLRSNDFSIVGSLPI [GlyRβ_Full_Positional_Scan_283] , please.
**Result** 1.01

**Query** Tell me the measured Native geph Binding Intensity [norm.] of DLRSNDFSIVGVLPR [GlyRβ_Full_Positional_Scan_226] , please.
**Result** 0.74

**Query** Tell me the measured Native geph Binding Intensity [norm.] of DLRSNDFSIVGHLPR [GlyRβ_Full_Positional_Scan_233] , please.
**Result** 0.9

---

tested on: FL-geph; experiment: µSPOT peptide microarray binding assay with full-length geph; settings: µSPOT full positional scan of GlyRβ 15-mer DLRSNDFSIVGSLPR, intensity normalised to wild-type sequence (= 1)
So basically, if Fl-geph Binding Intensity [norm.] comes in under 0.9 norm. it's criterion met, and if it's 0.9 norm. or more it's criterion not met.

MACROMOLECULE_SEQUENCE: DLRSNDFSIVGSLPE [GlyRβ_Full_Positional_Scan_291]
CAT: criterion met

MACROMOLECULE_SEQUENCE: DLRSNDFSIVGSEPR [GlyRβ_Full_Positional_Scan_251]
CAT: criterion not met

MACROMOLECULE_SEQUENCE: DLRSNDFSIVGSFPR [GlyRβ_Full_Positional_Scan_247]
CAT: criterion not met

MACROMOLECULE_SEQUENCE: DLRSNDFSIVGSNPR [GlyRβ_Full_Positional_Scan_259]
CAT: criterion not met

MACROMOLECULE_SEQUENCE: DLRSNDFSIVGSLQR [GlyRβ_Full_Positional_Scan_280]
CAT: criterion met

**Query** Find out if reported Fl-geph Binding Intensity [norm.] for DLRSNDFSIVCSLPR [GlyRβ_Full_Positional_Scan_217, GlyR β 414-428 variant G424C] is less than 0.9 norm.
**Result** criterion met

**Query** Find out if reported Fl-geph Binding Intensity [norm.] for DLRSNDFSIVGSIPR [GlyRβ_Full_Positional_Scan_243] is less than 0.9 norm.
**Result** criterion not met

**Query** Find out if reported Fl-geph Binding Intensity [norm.] for DLRSNDFSIVGSTPR [GlyRβ_Full_Positional_Scan_256] is less than 0.9 norm.
**Result** criterion not met

**Query** Find out if reported Fl-geph Binding Intensity [norm.] for DLRSNDFSIVGDLPR [GlyRβ_Full_Positional_Scan_230] is less than 0.9 norm.
**Result** criterion met
